Below, each entry is listed with its recorded IC50.
Tested on: MCF7;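 further: growth inhibition of human MCF7 cells, read out with a cell viability assay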
Assay Info: cells
Type: functional, cell-based
Experimental Parameters: Homo sapiens
Description: SANGER: Inhibition of human MCF7 cell growth in a cell viability assay.
Return type: number; implicit unit µM.

Worked examples, 3 compounds total:
| Smiles Code | Data Value |
| --- | --- |
| NC(=O)c1ncn([C@@H]2O[C@H](COP(=O)(O)O)[C@@H](O)[C@H]2O)c1N | 901 |
| CCNC(=O)c1noc(-c2cc(C(C)C)c(O)cc2O)c1-c1ccc(CN2CCOCC2)cc1 | 0.00335 |
| CC(=O)c1c(C)c2cnc(Nc3ccc(N4CCNCC4)cn3)nc2n(C2CCCC2)c1=O | 2.71 |

Which IC50 is listed for Cn1c(=O)n(-c2ccc(C(C)(C)C#N)cc2)c2c3cc(-c4cnc5ccccc5c4)ccc3ncc21 ?
0.0486

----------
Tested on: Ramos-2G6-4C10;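 further: growth inhibition of the cell line, measured by a cell viability read-out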
Assay Info: cells
Format: functional, cell-based
Experimental Parameters: Homo sapiens
Description: SANGER: Inhibition of human Ramos-2G6-4C10 cell growth in a cell viability assay.
Below, each entry is listed with its recorded pIC50.
Scale: negative log10 of molar concentration, which is what pIC50 denotes.

| Smiles Code | pIC50 |
| --- | --- |
| Cc1n[nH]c2ccc(-c3cncc(OC[C@@H](N)Cc4c[nH]c5ccccc45)c3)cc12 | 6.77 |

Switching to the query record.
Which pIC50 is listed for Cn1c(=O)n(-c2ccc(C(C)(C)C#N)cc2)c2c3cc(-c4cnc5ccccc5c4)ccc3ncc21 ?
8.07

----------
Tested on: NCI-H2342;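 further: growth inhibition of the cancer cell line, determined with a cell viability assay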
Assay Info: cells
Type: functional, cell-based
Experimental Parameters: Homo sapiens
Description: SANGER: Inhibition of human NCI-H2342 cell growth in a cell viability assay.
pIC50: −log10 of the molar value.
Below, each entry is listed with its recorded pIC50.

Worked examples, 4 compounds total:
| Compound | Study System | pIC50 |
| --- | --- | --- |
| O=c1[nH]c2ccccc2n1C1CCN(Cc2ccc(-c3nc4cc5[nH]cnc5cc4nc3-c3ccccc3)cc2)CC1 | NCI-H2342 | 6.03 |
| NC(=O)c1ncn([C@@H]2O[C@H](COP(=O)(O)O)[C@@H](O)[C@H]2O)c1N | NCI-H2342 | < 2.70 |
| CC(O)(CS(=O)(=O)c1ccc(F)cc1)C(=O)Nc1ccc(C#N)c(C(F)(F)F)c1 (stereo not given) [BICALUTAMIDE] | NCI-H2342 | < 5.99 |
| C[C@]1(c2nc3c(C(N)=O)cccc3[nH]2)CCCN1 | NCI-H2342 | < 5.30 |

Switching to the query record.
Which pIC50 is listed for Cn1cc(/C=C2\C(=O)Nc3cccnc32)c2ccccc21 ?
< 5.70

----------
Test system: NCI-H747;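 further: growth inhibition of human NCI-H747 cells, read out by a cell viability assay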
Assay Info: cells
Assay type: functional, cell-based
Experimental Parameters: Homo sapiens
Description: SANGER: Inhibition of human NCI-H747 cell growth in a cell viability assay.
Mark fulfilled only when IC50 stays strictly below 1 µM. Values equal to the cut-off are not fulfilled.

Below 1 µM on IC50? Entry Cc1[nH]c(/C=C2\C(=O)Nc3ccc(S(=O)(=O)Cc4c(Cl)cccc4Cl)cc32)c(C)c1C(=O)N1CCC[C@@H]1CN1CCCC1 [PHA-665752]
not fulfilled

Below 1 µM on IC50? Entry NC(=O)c1ncn([C@@H]2O[C@H](COP(=O)(O)O)[C@@H](O)[C@H]2O)c1N
not fulfilled

Below 1 µM on IC50? Entry Fc1cc(-c2cc[nH]/c(=N/c3ccc(-n4cnc(N5CCOCC5)n4)cc3)n2)cc(N2CCOCC2)c1
not fulfilled

Below 1 µM on IC50? Entry CC[C@]1(O)C[C@@H]2CN(CCc3c([nH]c4ccccc34)[C@@](C(=O)OC)(c3cc4c(cc3OC)N(C)[C@H]3[C@@](O)(C(=O)OC)[C@H](OC(C)=O)[C@]5(CC)C=CCN6CC[C@]43[C@@H]65)C2)C1 [VINBLASTINE]
fulfilled

Below 1 µM on IC50? Entry C[C@]1(c2nc3c(C(N)=O)cccc3[nH]2)CCCN1 [VELIPARIB]
not fulfilled

Below 1 µM on IC50? Entry Cn1c(=O)n(-c2ccc(C(C)(C)C#N)cc2)c2c3cc(-c4cnc5ccccc5c4)ccc3ncc21 [DACTOLISIB]
fulfilled

Below 1 µM on IC50? Entry Cc1nc(Nc2ncc(C(=O)Nc3c(C)cccc3Cl)s2)cc(N2CCN(CCO)CC2)n1 [DASATINIB]
fulfilled

----------
Test system: Hs-578T
Assay Info: cells
Assay type: functional, cell-based
Experimental Parameters: Homo sapiens
Description: SANGER: Inhibition of human Hs-578-T cell growth in a cell viability assay.
Metric Name: IC50

Worked examples, 2 molecules total:
| Molecule | Study System | Data Value |
| --- | --- | --- |
| CC(O)(CS(=O)(=O)c1ccc(F)cc1)C(=O)Nc1ccc(C#N)c(C(F)(F)F)c1 (stereo not given) [BICALUTAMIDE] | Hs-578T | > 1020 nM |
| Cn1cc(/C=C2\C(=O)Nc3cccnc32)c2ccccc21 | Hs-578T | > 2000 nM |

Which IC50 is listed for O=c1[nH]c2ccccc2n1C1CCN(Cc2ccc(-c3nc4cc5[nH]cnc5cc4nc3-c3ccccc3)cc2)CC1 ?
> 2560 nM

Which IC50 is listed for COc1cc(Nc2c(C#N)cnc3cc(OCCCN4CCN(C)CC4)c(OC)cc23)c(Cl)cc1Cl [BOSUTINIB] ?
> 2000 nM

Which IC50 is listed for CCCS(=O)(=O)Nc1ccc(F)c(C(=O)c2c[nH]c3ncc(Cl)cc23)c1F [PLX-4720] ?
> 10000 nM

----------
System: RPMI-6666
Assay Info: cells
Format: functional, cell-based
Experimental Parameters: Homo sapiens
Description: SANGER: Inhibition of human RPMI-6666 cell growth in a cell viability assay.
Metric Name: IC50

Worked examples, 4 compounds total:
| Compound | IC50 |
| --- | --- |
| Cc1n[nH]c2ccc(-c3cncc(OC[C@@H](N)Cc4c[nH]c5ccccc45)c3)cc12 | 0.152 µM |
| CCn1c(-c2nonc2N)nc2cnc(Oc3cccc(NC(=O)c4ccc(OCCN5CCOCC5)cc4)c3)cc21 [GSK-269962A] | > 2.5 µM |
| Cc1[nH]c(/C=C2\C(=O)Nc3ccc(S(=O)(=O)Cc4c(Cl)cccc4Cl)cc32)c(C)c1C(=O)N1CCC[C@@H]1CN1CCCC1 | > 2 µM |
| Cc1ccc(NC(=O)c2cccc(C(C)(C)C#N)c2)cc1Nc1ccc2ncn(C)c(=O)c2c1 | > 4 µM |

Which IC50 is listed for CC(C)=CC[C@@H](O)C1=CC(=O)c2c(O)ccc(O)c2C1=O ?
0.587 µM

Which IC50 is listed for C/C(O)=C(\C#N)C(=O)Nc1cc(Br)ccc1Br ?
> 16 µM

----------
Tested on: IST-MES1
Assay Info: cells
Format: functional, cell-based
Experimental Parameters: Homo sapiens
Description: SANGER: Inhibition of human IST-MES1 cell growth in a cell viability assay.
Below, each entry is listed with its recorded IC50.

Worked examples, 5 compounds total:
| Smiles Code | IC50 |
| --- | --- |
| O=c1[nH]c2ccccc2n1C1CCN(Cc2ccc(-c3nc4cc5[nH]cnc5cc4nc3-c3ccccc3)cc2)CC1 | > 2560 nM |
| C[C@]1(c2nc3c(C(N)=O)cccc3[nH]2)CCCN1 | > 5000 nM |
| Cn1cc(/C=C2\C(=O)Nc3cccnc32)c2ccccc21 | > 2000 nM |
| C/C(O)=C(\C#N)C(=O)Nc1cc(Br)ccc1Br | > 16000 nM |
| CC(C)=CC[C@@H](O)C1=CC(=O)c2c(O)ccc(O)c2C1=O | 1700 nM |

Which IC50 is listed for CC[C@@]1(O)C(=O)OCc2c1cc1n(c2=O)Cc2cc3ccccc3nc2-1 ?
10.6 nM

Which IC50 is listed for CCNC(=O)c1noc(-c2cc(C(C)C)c(O)cc2O)c1-c1ccc(CN2CCOCC2)cc1 ?
> 256 nM

Which IC50 is listed for Cc1nc(Nc2ncc(C(=O)Nc3c(C)cccc3Cl)s2)cc(N2CCN(CCO)CC2)n1 ?
85.5 nM

----------
System: ETK-1
Assay Info: cells
Type: functional, cell-based
Experimental Parameters: Homo sapiens
Description: SANGER: Inhibition of human ETK-1 cell growth in a cell viability assay.
Metric Name: pIC50
Scale: negative log10 of molar concentration, which is what pIC50 denotes.

Which pIC50 is listed for Fc1cc(-c2cc[nH]/c(=N/c3ccc(-n4cnc(N5CCOCC5)n4)cc3)n2)cc(N2CCOCC2)c1 ?
5.98

Which pIC50 is listed for CC(C)=CC[C@@H](O)C1=CC(=O)c2c(O)ccc(O)c2C1=O ?
5.61

Which pIC50 is listed for COc1cc(C)c(Sc2cnc(NC(=O)c3ccc(CNC(C)C(C)(C)C)cc3)s2)cc1C(=O)N1CCN(C(C)=O)CC1 (stereo unspecified) ?
5.65

Which pIC50 is listed for Cc1nc(Nc2ncc(C(=O)Nc3c(C)cccc3Cl)s2)cc(N2CCN(CCO)CC2)n1 ?
7.55

----------
System: UACC-257
Assay Info: cells
Format: functional, cell-based
Experimental Parameters: Homo sapiens
Description: SANGER: Inhibition of human UACC-257 cell growth in a cell viability assay.
Below, each entry is listed with its recorded IC50.
Return type: number; implicit unit nM.

| Smiles Code | Unit Tag | IC50 |
| --- | --- | --- |
| Cn1c(=O)n(-c2ccc(C(C)(C)C#N)cc2)c2c3cc(-c4cnc5ccccc5c4)ccc3ncc21 | nM | 214 |

Switching to the query record.
Which IC50 is listed for CC[C@]1(O)C[C@@H]2CN(CCc3c([nH]c4ccccc34)[C@@](C(=O)OC)(c3cc4c(cc3OC)N(C)[C@H]3[C@@](O)(C(=O)OC)[C@H](OC(C)=O)[C@]5(CC)C=CCN6CC[C@]43[C@@H]65)C2)C1 ?
90.5
